Data origin, for the record: patent US20250011456A1

assayed_system: T1, Recombinant Human CD14/His Protein (B294801) (human, UniProt P08571 20-352, limits assumed)
T1 construct: Bought His-tagged recombinant human CD14; also called recombinant human CD14 antigen; CD14 antigen; not shown: histidine tag
T1 sequence (looked up): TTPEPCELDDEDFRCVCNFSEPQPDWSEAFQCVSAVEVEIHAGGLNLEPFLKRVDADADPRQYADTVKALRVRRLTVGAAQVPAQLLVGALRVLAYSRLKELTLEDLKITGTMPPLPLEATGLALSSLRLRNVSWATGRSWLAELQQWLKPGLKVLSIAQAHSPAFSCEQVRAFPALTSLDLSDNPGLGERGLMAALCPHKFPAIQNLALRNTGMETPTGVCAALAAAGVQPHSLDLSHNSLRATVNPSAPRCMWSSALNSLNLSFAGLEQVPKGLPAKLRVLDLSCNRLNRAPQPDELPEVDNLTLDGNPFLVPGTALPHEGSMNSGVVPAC
measurement_description: SPR (Biacore 8K), antibody captured (1 ug/mL) on Protein A chip, CD14-His analyte 0.1953125-25 nM, 1:1 binding
readout_type: kon (M⁻¹ s⁻¹)
Hi! Could you send only the number? It should be in M⁻¹ s⁻¹, unit omitted.

Prompt line: Tell me the measured kon of Antibody No. MPDDAD002 (HU1127-hVH3/hVL3-2) (antibody, V domains shown, D6DD3D014 with the light chain PTM site NS (VL amino acids 34, 35) changed to SS; Tested as a recombinant antibody with hFc tag, 144 kDa) VH: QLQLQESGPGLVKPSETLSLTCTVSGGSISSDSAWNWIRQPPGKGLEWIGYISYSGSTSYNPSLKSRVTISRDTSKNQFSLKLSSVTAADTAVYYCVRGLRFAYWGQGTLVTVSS VL: DIQLTQSPSSLSASVGDRVTITCRASESVDSYVSSFLHWYQQKPGKAPKLLIYRASNLQSGVPSRFSGSGSRTDFTLTISSLQPEDVATYYCQQSNEDPYTFGQGTKLEIK , please.
Response line: 1.29e+06

Prompt line: Same thing, different binder: Antibody No. MPDDAD001 (HU1127-hVH3/hVL3-1) (antibody, IgG1, V domains shown, D6DD3D014 with the light chain PTM site NS (VL amino acids 34, 35) changed to DS; Tested as a recombinant antibody with hFc tag, 144 kDa) VH: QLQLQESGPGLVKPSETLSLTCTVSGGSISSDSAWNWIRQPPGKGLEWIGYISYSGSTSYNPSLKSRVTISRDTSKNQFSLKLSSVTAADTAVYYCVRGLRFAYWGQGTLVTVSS VL: DIQLTQSPSSLSASVGDRVTITCRASESVDSYVDSFLHWYQQKPGKAPKLLIYRASNLQSGVPSRFSGSGSRTDFTLTISSLQPEDVATYYCQQSNEDPYTFGQGTKLEIK
Response line: 847000

Prompt line: Can you handle Antibody No. D6DD3D001 (HU1127-mVH/mVL) (antibody, human IgG1, kappa, V domains shown, Mouse variable domains of Atibuclimab on human IgG1 constant regions (hFc, 146 kDa); also called Original IgG1 antibody; mouse antibody) VH: DVQLQQSGPGLVKPSQSLSLTCTVTGYSITSDSAWNWIRQFPGNRLEWMGYISYSGSTSYNPSLKSRISITRDTSKNQFFLQLNSVTTEDTATYYCVRGLRFAYWGQGTLVTVSS VL: DIVLTQSPASLAVSLGQRATISCRASESVDSYVNSFLHWYQQKPGQPPKLLIYRASNLQSGIPARFSGSGSRTDFTLTINPVEADDVATYYCQQSNEDPYTFGGGTKLEIKR next?
Response line: 1.25e+06
